Record type: IC50 measurement. Applies to: UniProt Q8AZ87

// worked examples, IC50 included
• CCC(CC)O[C@@H]1C=C(C(=O)O)C[C@H](n2cc(-c3ccc(-c4ccccc4)cc3)nn2)[C@H]1NC(C)=O [Compound 1a] = > 100 µM
• CCC(CC)O[C@@H]1C=C(C(=O)O)C[C@H](n2cc(COc3ccc4ccccc4c3)nn2)[C@H]1NC(C)=O [Compound 1c] = 3.8 µM

For every item in the list below, what is its measured IC50?
1. CCC(CC)O[C@@H]1C=C(C(=O)O)C[C@H](n2cc(-c3ccc(C)cc3)nn2)[C@H]1NC(C)=O [Compound 1d]
2. CCC(CC)O[C@@H]1C=C(C(=O)O)C[C@H](n2cc(-c3ccc(Oc4ccccc4)cc3)nn2)[C@H]1NC(C)=O [Compound 1b]

1: 4.41 µM; 2: > 100 µM

====

- system.name: N5 (H12N5) neuraminidase (Influenza A virus, UniProt A1ILL9)
- measurement.description: biochemical
recorded.metric: log10(IC50) (log10 of the value in nM)
The figures below represent log10 of IC50, where IC50 is stated in nM.

// worked examples, log10(IC50) included
• CCC(CC)O[C@@H]1C=C(C(=O)O)C[C@H](n2nncc2COc2ccc(C[C@H](N)C(=O)O)cc2)[C@H]1NC(C)=O = 3.39
• CCC(CC)O[C@@H]1C=C(C(=O)O)C[C@H](n2cc(-c3ccccc3)nn2)[C@H]1NC(C)=O = 4.11
• CCC(CC)O[C@@H]1C=C(C(=O)O)C[C@H](n2cc(-c3ccc(N(C)C)cc3)nn2)[C@H]1NC(C)=O = 2.87
• CCC(CC)O[C@@H]1C=C(C(=O)O)C[C@H](n2nncc2-c2ccccc2N)[C@H]1NC(C)=O = 2.61
• CCC(CC)O[C@@H]1C=C(C(=O)O)C[C@H](n2cc(-c3ccc(C(=O)O)cc3)nn2)[C@H]1NC(C)=O = 3.91
• CCC(CC)O[C@@H]1C=C(C(=O)O)C[C@H](N)[C@H]1NC(C)=O [OSC, oseltamivir carboxylate, reference compound] = -0.03
• CCC(CC)O[C@@H]1C=C(C(=O)O)C[C@H](n2cc(-c3ccccc3C(=O)O)nn2)[C@H]1NC(C)=O = 4.79
• CCC(CC)O[C@@H]1C=C(C(=O)O)C[C@H](n2nncc2-c2cccc(N)c2)[C@H]1NC(C)=O = 1.65

For every item in the list below, what is its measured log10(IC50)?
1. CCC(CC)O[C@@H]1C=C(C(=O)O)C[C@H](n2nncc2-c2ccc(N(C)C)cc2)[C@H]1NC(C)=O
2. CCC(CC)O[C@@H]1C=C(C(=O)O)C[C@H](n2cc(COc3ccc(C[C@H](N)C(=O)O)cc3)nn2)[C@H]1NC(C)=O
3. CCC(CC)O[C@@H]1C=C(C(=O)O)C[C@H](n2cc(-c3ccc(C)cc3)nn2)[C@H]1NC(C)=O
4. CCC(CC)O[C@@H]1C=C(C(=O)O)C[C@H](n2nncc2-c2ccccc2)[C@H]1NC(C)=O

1: 2.15; 2: 3.84; 3: 3.45; 4: 3.73

====

Could you please report measured IC50 for the items listed next?
- system.name: N5 (H12N5) neuraminidase (Influenza A virus)
Give bare numbers, in µM.

For every item in the list below, what is its measured IC50?
1. CCC(CC)O[C@@H]1C=C(C(=O)O)C[C@H](n2nncc2-c2ccc(N)cc2)[C@H]1NC(C)=O
2. CCC(CC)O[C@@H]1C=C(C(=O)O)C[C@H](n2cc(COc3ccc4ccccc4c3)nn2)[C@H]1NC(C)=O
3. CCC(CC)O[C@@H]1C=C(C(=O)O)C[C@H](n2cc(-c3ccccc3N)nn2)[C@H]1NC(C)=O
4. CCC(CC)O[C@@H]1C=C(C(=O)O)C[C@H](n2nncc2-c2ccccc2C(=O)O)[C@H]1NC(C)=O

1. 0.25
2. 1.66
3. 0.52
4. 0.57

Which IC50 is listed for CCC(CC)O[C@@H]1C=C(C(=O)O)C[C@H](n2cc(-c3cccc(C(=O)O)c3)nn2)[C@H]1NC(C)=O ?
29.5

Provenance of the data: paper PMC8696196
